# Tested on: NCI-H522 lung
# Method notes: NCI-60 one-dose screen, 48 h (100 = growth as untreated, 0 = no growth, -100 = all killed)
# Experimental parameters: 10 µM
This is part of a sample that, as a whole, favours compounds with a hit. Of some 83,000 tested, about 20% had one in any assay.
Label scheme for growth: lower than 70% is N, 70% and above is Y.

# Structure, Label class
records = [
    ("COc1nccnc1NS(=O)(=O)c1ccc(NC2=C(Cl)C(=O)c3nc(C)ccc3C2=O)cc1", "Y"),
    ("COc1ccc2nc(Cl)c(-c3cc(-c4ccccc4)nc(=O)[nH]3)cc2c1", "N"),
    ("CC(=O)c1ccc(Nc2nc(SC(C)C)nc(-c3ccccc3)c2C#N)cc1", "N"),
]

Input: For this compound, is measured growth 70% or higher? Cc1cc(=O)oc2cc(OCCCCOc3ccc(/C=C/C(=O)Nc4ccc(F)c(Cl)c4)cc3)ccc12
Output: Y

Input: Please indicate if the recorded growth for C/C(=N\N=C\c1ccc(Cl)c([N+](=O)[O-])c1)c1ccc2c(c1)Nc1ccccc1S2 meets or exceeds 70%.
Output: N

Input: Quick check: does COC[C@@H](CC(C)C)N=C1NC(=O)/C(=C/c2ccc3ncsc3c2)N1 have growth greater than or equal to 70%?
Output: N

Input: Assess whether reported growth for COc1cccc2nc(Nc3cccc(NC(=O)c4ccc(CN5CCCN(C)CC5)c(C(F)(F)F)c4)c3)ccc12 sits at 70% or higher.
Output: N

Input: Identify whether the reported growth of the following compound is 70% or greater: O=C(Nc1ccncc1)c1ccc(-n2c(=O)[nH]c3ccccc3c2=O)cc1
Output: Y

Input: Is the recorded value of growth equal to or greater than 70% for this compound? O=C(Cn1cc(CSc2nnc3oc4ccccc4n23)nn1)Nc1ccc(Br)cc1
Output: Y

###

# Tested on: BT-549 breast
# Method notes: NCI-60 one-dose screen, 48 h (100 = growth as untreated, 0 = no growth, -100 = all killed)
# Experimental parameters: 10 µM
This is part of a sample that, as a whole, favours compounds with a hit. Of some 83,000 tested, about 20% had one in any assay.
We label by threshold. Values of growth strictly beneath 30% are Y. Values of 30% and up are N.

Solved cases (5 shown):
# Structure, Label class
measured = [
    ("COc1csc(/C=N/NC(=O)c2[nH]c3ccc(Br)cc3c2-c2ccccc2)c1", "N"),
    ("Cc1ccc(-c2cc(C(=O)N=Nc3c(O)[nH]c4ccccc34)c3ccccc3n2)cc1", "N"),
    ("O=C1c2ccccc2C(=O)c2c1c(C(=O)c1ccc(Cl)cc1)n1c2ccc2c3ccccc3ccc21", "N"),
    ("C=CC(=O)Nc1ccc(C(=O)/C=C/c2ccc(N(C)CCF)cc2)c(O)c1", "Y"),
    ("O=C1Nc2cc(-c3ccc(NC(=O)c4cccs4)cc3)ccc2/C1=C/c1ccc[nH]1", "N"),
]

# input for lookup
Input: Is the reported growth for COc1cc(Cn2c(C(F)(F)F)cc3c(Cl)ncnc32)ccn1 strictly below 30%?
Output: Y

###

# System: NCI-H226 lung
# Method notes: NCI-60 one-dose screen, 48 h (100 = growth as untreated, 0 = no growth, -100 = all killed)
# Experimental parameters: 10 µM
About 83,000 compounds went through this panel and 20% of them were active in at least one assay; those are over-represented in the sample as a whole.
# reported growth; entries follow
Use % as the unit, but write only the number.

Below are worked cases with known answers.
# Structure, System, growth [%]
records = [
    ("Cc1ccc(F)cc1N/C=c1\\s/c(=C(\\C#N)C(=O)Nc2ccccc2)n(-c2ccccc2)c1=O", "NCI-H226 lung", 20.3),
    ("Cc1ccc(C(=O)Nc2ccc(-n3c(C)nc4c(cnn4-c4ccccc4)c3=O)cc2)cc1", "NCI-H226 lung", 54.8),
    ("Cc1ccc(/C=C/C(=O)c2ccc(S(=O)(=O)NCCNc3nc(Nc4ccc(F)cc4)nc(N(C)C)n3)cc2)cc1", "NCI-H226 lung", -1.6),
]

Now consider a different compound.
Entry N#Cc1c(-c2ccc(Cl)cc2)cc(-c2ccccc2)nc1OCc1ccccc1 , tested on NCI-H226 lung, has a reported growth of 74.7
